assay text: in vivo
condition summary: mouse, in vivo, po
Structures can show the parent of a compound that is named as a salt.
observed property: LD50 at 24 h

>  <molecule>
CCCN1C[C@@H]2c3ccccc3[C@@H]3C[C@@]2(C1)c1ccccc13 (relative stereo)

>  <observed property>
LD50 at 24 h

>  <value measured>
200 mg/kg

$$$$
>  <molecule>
Clc1ccc2c(c1)[C@H]1CN(CC3CCCC3)C[C@@]13C[C@@H]2c1ccc(Cl)cc13 (relative stereo) [Example 79, Hydrochloride]

>  <observed property>
LD50 at 24 h

>  <value measured>
> 324 mg/kg

$$$$
>  <molecule>
CC1CCC(CN2C[C@@H]3c4ccccc4[C@@H]4C[C@@]3(C2)c2ccccc24)C1 (stereo partly shown)

>  <observed property>
LD50 at 24 h

>  <value measured>
> 324 mg/kg

$$$$

# evaluate next
Query block: LD50 at 24 h lookup needed for Brc1ccc2c(c1)[C@]13C[C@H]2c2ccccc2[C@H]1CN(CC1CCCC1)C3 (relative stereo) [Example 70, Hydrochloride] , thanks.
Result block: > 324 mg/kg
